Reported values of pKi for individual entries
# measured.on: Sigma non-opioid intracellular receptor 1 (Rattus norvegicus)
# Sequence (Q9R0C9 whole entry): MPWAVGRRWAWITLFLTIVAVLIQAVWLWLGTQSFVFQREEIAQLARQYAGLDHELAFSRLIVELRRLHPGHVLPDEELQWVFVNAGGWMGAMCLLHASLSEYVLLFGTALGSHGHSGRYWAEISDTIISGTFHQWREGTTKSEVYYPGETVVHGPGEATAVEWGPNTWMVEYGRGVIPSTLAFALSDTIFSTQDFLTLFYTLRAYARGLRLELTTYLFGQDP
# measurement.notes: Displacement of [3H](+)-pentazocine from sigma1 receptor in rat liver membrane by liquid scintillation counting
When answering, recall that pKi equals minus log10 of the concentration in mol/L, and write that number alone.

# example entries with known answers
Ask: Bench note: what pKi did `COc1cccc(CN(C)CCCCn2c(=O)oc3ccccc32)c1` show?
Reply: 6.53

Ask: Same question for `O=C(Nc1ccccc1)C1CCN(Cc2ccc(Cl)cc2)CC1` please.
Reply: 7.35

Ask: Same question for `O=C(Nc1ccccc1)C1CCN(Cc2ccccc2)CC1` please.
Reply: 7.32

Next:
Ask: Bench note: what pKi did `Cc1ccccc1CN(C)CCCn1c(=O)oc2ccccc21` show?
Reply: 6.05

Ask: Same question for `CN(CCCCn1c(=O)oc2ccccc21)Cc1cccc(Cl)c1` please.
Reply: 6.52

Ask: Same question for `Cc1cccc(CN(C)CCCn2c(=O)oc3ccccc32)c1` please.
Reply: 5.74

Ask: Same question for `Cc1ccccc1CN1CCC(Cn2c(=O)oc3ccccc32)CC1` please.
Reply: 7.53

---

# measurement.notes: Displacement of [3H]DTG from sigma2 receptor in rat liver membrane by liquid scintillation counting
# Assay type: cell membranes
pKi: −log10 of the molar value.
Class field: derived from pKi; ranges bottom: < 6; middle: ≥ 6 and < 7; top: ≥ 7

Solved cases (2 shown):
Ask: Which bin, given its pKi, does `CN(CCCn1c(=O)oc2ccccc21)Cc1ccccc1Cl` occupy?
Reply: middle

Ask: Same question for `COc1cccc(CN(C)CCCn2c(=O)oc3ccccc32)c1` please.
Reply: bottom

Next:
Ask: Which bin, given its pKi, does `Cc1cccc(CN(C)CCCCn2c(=O)oc3ccccc32)c1` occupy?
Reply: top

Ask: Same question for `CN(CCCCn1c(=O)oc2ccccc21)Cc1ccc(Cl)cc1` please.
Reply: top

Ask: Same question for `Cc1cccc(CN(C)CCCn2c(=O)oc3ccccc32)c1` please.
Reply: bottom

Ask: Same question for `COc1ccc(CN(C)CCCCn2c(=O)oc3ccccc32)cc1` please.
Reply: top

Ask: Same question for `COc1ccccc1CN(C)CCCn1c(=O)oc2ccccc21` please.
Reply: middle

---

# measured.on: Sigma non-opioid intracellular receptor 1 (Rattus norvegicus)
# measurement.notes: Displacement of [3H](+)-pentazocine from sigma1 receptor in rat liver membrane by liquid scintillation counting
Reported values of Ki for individual entries
Your answer is read as nM, so omit the unit and give the number.

Ask: # returns recorded Ki (system: Sigma non-opioid intracellular receptor 1 (Rattus norvegicus)) for `COc1ccc(CN(C)CCCn2c(=O)oc3ccccc32)cc1`
Reply: 83

Ask: Same question for `COc1ccccc1CN(C)CCCCn1c(=O)oc2ccccc21` please.
Reply: 594

Ask: Same question for `Cc1ccc(CN(C)CCCn2c(=O)oc3ccccc32)c(C)c1` please.
Reply: 1830

---

# measured.on: Sigma non-opioid intracellular receptor 1 (Rattus norvegicus)
# measurement.notes: Displacement of [3H](+)-pentazocine from sigma1 receptor in rat liver membrane by liquid scintillation counting
Reported values of pKi for individual entries
When answering, recall that pKi equals minus log10 of the concentration in mol/L, and write that number alone.

# example entries with known answers
Ask: Bench note: what pKi did `Cc1ccc(CN2CCC(C(=O)Nc3ccccc3)CC2)cc1` show?
Reply: 6.98

Ask: Same question for `CN(CCCn1c(=O)oc2ccccc21)Cc1cccc(Cl)c1` please.
Reply: 5.49

Ask: Same question for `Cc1ccc(CN(C)CCCCn2c(=O)oc3ccccc32)cc1` please.
Reply: 7.01

Ask: Same question for `Cc1ccc(CN2CCC(Cn3c(=O)oc4ccccc43)CC2)cc1` please.
Reply: 8.51

Ask: Same question for `COc1cccc(CN(C)CCCn2c(=O)oc3ccccc32)c1` please.
Reply: 5.07

Now for the molecule whose pKi we want.
Ask: Bench note: what pKi did `CN(CCCCn1c(=O)oc2ccccc21)Cc1ccccc1Cl` show?
Reply: 6.07
